- Tested on: 276233-004-R-J1-PDC complex spheroid viability
- Test summary: Anticancer human tumor 276233-004-R-J1-PDC patient-derived colon adenocarcinoma cell line growth inhibition [GQUAD]; active means viability on the fitted dose curve at most 10% of control; inactive means the rest
- Condition info: second compound 3.16 µM; first compound 3.16 µM
Thanks in advance; please answer with one of these: 1 (yes) for active, 0 (no) for inactive

Worked set:
Compound: O=C(c1cc(Cc2n[nH]c(=O)c3ccccc23)ccc1F)N1CCN(C(=O)C2CC2)CC1 + Cc1[nH]c2ccc(F)cc2c1-c1nc2c3cccnc3c3ncccc3c2[nH]1
Class label: 0 (no)
--
Compound: C=CC(=O)N1CCN(c2nc(=O)n(-c3c(C)ccnc3C(C)C)c3nc(-c4c(O)cccc4F)c(F)cc23)C(C)C1 (stereo unspecified) + Cc1[nH]c2ccc(F)cc2c1-c1nc2c3cccnc3c3ncccc3c2[nH]1
Class label: 0 (no)
--
Compound: O=c1[nH]cc(F)c(=O)[nH]1 + CN(C)c1ccc(Nc2c3ccc(NC(=O)CCN4CCCC4)cc3nc3cc(NC(=O)CCN4CCCC4)ccc23)cc1
Class label: 0 (no)
--
Compound: COc1cccc2c1C(=O)c1c(O)c3c(c(O)c1C2=O)CC(O)(C(=O)CO)CC3OC1CC(N)C(O)C(C)O1 (stereo unspecified) + CN(C)c1ccc(Nc2c3ccc(NC(=O)CCN4CCCC4)cc3nc3cc(NC(=O)CCN4CCCC4)ccc23)cc1
Class label: 0 (no)
--
Compound: Nc1ccn(C2OC(CO)C(O)C2(F)F)c(=O)n1 (stereo unspecified) + CN(C)c1ccc(Nc2c3ccc(NC(=O)CCN4CCCC4)cc3nc3cc(NC(=O)CCN4CCCC4)ccc23)cc1
Class label: 0 (no)

Can you look up the reported call for CC1COCCN1c1cc(-c2ccnn2C)c2ccnc(-c3ccn[nH]3)c2n1 (stereo unspecified) + CN(C)c1ccc(Nc2c3ccc(NC(=O)CCN4CCCC4)cc3nc3cc(NC(=O)CCN4CCCC4)ccc23)cc1 for me?
0 (no)

Can you look up the reported call for C=CCn1c(=O)c2cnc(Nc3ccc(N4CCN(C)CC4)cc3)nc2n1-c1cccc(C(C)(C)O)n1 + Cc1cnc(CNC(=O)c2c(=O)c3ccc(N4CCCN(C)CC4)nc3n3c2sc2ccccc23)cn1 for me?
0 (no)

====

The compounds listed here are annotated with their viability, T/C.
- System: 276233-004-R-J1-PDC complex spheroid viability
- Test summary: Anticancer human tumor 276233-004-R-J1-PDC cell line growth inhibition [GQUAD];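 further: spheroids exposed to drugs for seven days; 100% = DMSO vehicle control viability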
- Condition info: second compound 3.16 µM; first compound 1 µM; stronger effect = lower value

Compound: CCCS(=O)(=O)Nc1ccc(F)c(C(=O)c2c[nH]c3ncc(-c4ccc(Cl)cc4)cc23)c1F + Cc1[nH]c2ccc(F)cc2c1-c1nc2c3cccnc3c3ncccc3c2[nH]1
Quantity measured: viability, T/C
Assay result: 15.5%

Compound: O=C(NO)c1cnc(N2CCN(S(=O)(=O)c3ccc4ccccc4c3)CC2)nc1 + Cc1cnc(CNC(=O)c2c(=O)c3ccc(N4CCCN(C)CC4)nc3n3c2sc2ccccc23)cn1
Quantity measured: viability, T/C
Assay result: 5.71%

Now examine the next entry.
Value of viability, T/C reported for the compound COc1ncnc(C2CC2)c1-c1ncc2cnn(Cc3ccc(-c4nc(C(F)(F)F)cn4C(C)C)cc3)c2n1 + CN(C)c1ccc(Nc2c3ccc(NC(=O)CCN4CCCC4)cc3nc3cc(NC(=O)CCN4CCCC4)ccc23)cc1 is 49.5%
